- experimental_protocol: The drug is tested on Z-028 corresponding to mouse gut metagenome with ENA study accession number: PRJEB37062 and ENA sample accession number: ERS12561827 for biotransformation under anaerobic condition. The drug concentrations were measured over 9 timepoints collected between 0 and 24 hours of incubation by liquid-chromatography-coupled mass spectrometry (LC–MS); note: call rule not given here
- stated_conditions: 2 µM
property_measured: Bacterial Biotransformation

CC(C)[C@H]1CC[C@H](C(=O)N[C@H](Cc2ccccc2)C(=O)O)CC1 [NATEGLINIDE]; Compound NOT metabolized
C=C[C@H]1CN2CC[C@H]1C[C@H]2[C@H](O)c1ccnc2ccc(OC)cc12.C=C[C@H]1CN2CC[C@H]1C[C@H]2[C@H](O)c1ccnc2ccc(OC)cc12.O.O.O=S(=O)(O)O [QUININE SULFATE]; Compound NOT metabolized
CC(C)c1nc(N(C)S(C)(=O)=O)nc(-c2ccc(F)cc2)c1/C=C/[C@@H](O)C[C@@H](O)CC(=O)[O-].CC(C)c1nc(N(C)S(C)(=O)=O)nc(-c2ccc(F)cc2)c1/C=C/[C@@H](O)C[C@@H](O)CC(=O)[O-].[Ca+2]; Compound NOT metabolized
